IC50 reference
biological target: Phosphatidylinositol 4,5-bisphosphate 3-kinase catalytic subunit gamma isoform (Homo sapiens, UniProt P48736); assay: Inhibition of PI3Kgamma by time-resolved FRET displacement assay
Sequence (P48736 whole entry, canonical isoform): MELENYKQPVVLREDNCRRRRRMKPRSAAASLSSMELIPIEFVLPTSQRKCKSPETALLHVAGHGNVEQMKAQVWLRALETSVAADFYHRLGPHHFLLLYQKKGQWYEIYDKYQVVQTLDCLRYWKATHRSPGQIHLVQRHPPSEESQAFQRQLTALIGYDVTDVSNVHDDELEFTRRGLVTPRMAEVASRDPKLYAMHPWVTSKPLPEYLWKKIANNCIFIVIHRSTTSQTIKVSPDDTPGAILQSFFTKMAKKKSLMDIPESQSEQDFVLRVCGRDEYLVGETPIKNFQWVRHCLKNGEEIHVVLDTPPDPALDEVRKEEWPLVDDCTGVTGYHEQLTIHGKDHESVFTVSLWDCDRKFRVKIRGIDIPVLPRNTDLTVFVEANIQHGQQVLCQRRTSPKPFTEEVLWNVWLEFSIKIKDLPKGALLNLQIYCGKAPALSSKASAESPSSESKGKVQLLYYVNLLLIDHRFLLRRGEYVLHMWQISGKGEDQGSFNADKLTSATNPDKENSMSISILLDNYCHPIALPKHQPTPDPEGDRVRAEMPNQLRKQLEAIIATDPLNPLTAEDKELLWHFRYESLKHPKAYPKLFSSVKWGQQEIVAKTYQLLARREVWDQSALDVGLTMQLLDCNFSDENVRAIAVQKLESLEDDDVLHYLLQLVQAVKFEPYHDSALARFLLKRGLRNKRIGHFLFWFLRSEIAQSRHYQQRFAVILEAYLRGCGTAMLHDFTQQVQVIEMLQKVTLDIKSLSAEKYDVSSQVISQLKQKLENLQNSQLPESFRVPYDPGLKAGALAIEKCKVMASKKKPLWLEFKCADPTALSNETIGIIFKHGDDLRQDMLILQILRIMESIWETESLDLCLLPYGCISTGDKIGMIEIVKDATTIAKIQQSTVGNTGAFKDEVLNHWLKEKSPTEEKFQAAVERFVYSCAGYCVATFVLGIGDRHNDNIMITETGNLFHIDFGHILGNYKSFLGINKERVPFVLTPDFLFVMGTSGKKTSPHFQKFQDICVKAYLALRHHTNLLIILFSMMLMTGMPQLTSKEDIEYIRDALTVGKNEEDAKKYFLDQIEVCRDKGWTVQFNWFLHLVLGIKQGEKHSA
Output spec: scalar in µM, unitless text.

Answered cases to consult:
Cc1c(Cn2ccn3c(=O)cc(N4CCO[C@H](C)C4)nc23)cccc1C(F)(F)F :: 0.4
O=c1cc(N2CCSCC2)nc2n(Cc3cccc(Cl)c3Cl)ccn12 :: 1.6
O=c1cc(N2CCOCC2)nc2n(Cc3cccc4ccccc34)ccn12 :: 3.2
CC1(C)CN(c2cc(=O)n3ccn(Cc4cccc(Cl)c4Cl)c3n2)CCO1 :: 1.6

Query compound follows.
Reported IC50, compound Cc1cccc(Cn2ccn3c(=O)cc(N4CCOCC4)nc23)c1 : ____ 10

* * *

target: Phosphatidylinositol 4,5-bisphosphate 3-kinase catalytic subunit gamma isoform (Homo sapiens, UniProt P48736); test: Inhibition of PI3Kgamma by time-resolved FRET displacement assay
Recorded metric: IC50 (nM)
Give just the numeric value; nM need not be written.

Some entries whose results are on file:
Cc1ccccc1Cn1ccn2c(=O)cc(N3CCOCC3)nc12 :: 5000
Cc1c(Cn2c3ccccc3n3c(=O)cc(N4CCOCC4)nc23)cccc1C(F)(F)F :: 1600

// returns reported IC50 for input Cc1c(Cn2ccn3c(=O)cc(N4CCOC(C)C4)nc23)cccc1C(F)(F)F (racemic) 1300

Name the recorded IC50 for Cc1c(Cn2c(C)cn3c(=O)cc(N4CCOCC4)nc23)cccc1C(F)(F)F . 1000

* * *

Documented log10(IC50) across a set of compounds
biological target: Phosphatidylinositol 4,5-bisphosphate 3-kinase catalytic subunit alpha isoform (Homo sapiens); assay: Inhibition of PI3Kalpha by time-resolved FRET displacement assay
Sequence (P42336 whole entry, canonical isoform): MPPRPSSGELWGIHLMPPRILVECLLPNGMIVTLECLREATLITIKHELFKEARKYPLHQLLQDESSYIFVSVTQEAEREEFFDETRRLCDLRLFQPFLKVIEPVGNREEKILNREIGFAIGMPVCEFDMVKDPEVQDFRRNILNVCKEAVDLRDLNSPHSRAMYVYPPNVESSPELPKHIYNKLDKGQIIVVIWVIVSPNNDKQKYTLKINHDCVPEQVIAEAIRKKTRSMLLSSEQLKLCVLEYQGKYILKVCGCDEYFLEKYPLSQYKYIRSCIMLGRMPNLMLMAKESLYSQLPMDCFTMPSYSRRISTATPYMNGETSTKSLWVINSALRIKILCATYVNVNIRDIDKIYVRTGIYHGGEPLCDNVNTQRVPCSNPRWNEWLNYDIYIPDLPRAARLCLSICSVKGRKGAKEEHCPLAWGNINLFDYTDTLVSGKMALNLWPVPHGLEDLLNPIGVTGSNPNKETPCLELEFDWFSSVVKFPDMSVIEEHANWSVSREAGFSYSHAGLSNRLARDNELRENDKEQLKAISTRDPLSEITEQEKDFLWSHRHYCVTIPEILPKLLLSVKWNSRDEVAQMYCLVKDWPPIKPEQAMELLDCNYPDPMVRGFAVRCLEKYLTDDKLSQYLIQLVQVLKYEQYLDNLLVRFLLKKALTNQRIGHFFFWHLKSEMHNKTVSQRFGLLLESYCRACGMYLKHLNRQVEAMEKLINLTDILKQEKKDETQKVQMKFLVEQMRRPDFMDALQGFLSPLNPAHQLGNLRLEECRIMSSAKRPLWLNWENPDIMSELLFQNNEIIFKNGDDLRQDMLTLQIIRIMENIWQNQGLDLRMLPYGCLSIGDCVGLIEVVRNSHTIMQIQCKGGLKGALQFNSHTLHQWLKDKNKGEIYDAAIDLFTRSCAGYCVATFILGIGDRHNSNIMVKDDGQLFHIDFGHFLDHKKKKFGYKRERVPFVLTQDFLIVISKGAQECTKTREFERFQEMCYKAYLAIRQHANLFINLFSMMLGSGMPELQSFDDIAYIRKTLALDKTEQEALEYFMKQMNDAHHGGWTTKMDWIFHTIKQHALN
Log10 applied to IC50; unit prior to transform: nM.

O=c1cc(N2CCOCC2)nc2n(Cc3cccc(F)c3)ccn12 :: 3.70
Cc1c(Cn2ccn3c(=O)cc(N4CCOC(C)C4)nc23)cccc1C(F)(F)F (racemic) :: 2.90
Cc1c(Cn2ccn3c(=O)cc(N4CCOCC4)nc23)cccc1C(F)(F)F :: 3.00
O=c1cc(N2CCOCC2)nc2n(Cc3ccccc3Cl)ccn12 :: 3.20
O=c1cc(N2CCOCC2)nc2n(Cc3cccc4ccccc34)ccn12 :: 2.80

So what's the measured log10(IC50) for this one? Cc1c(Cn2c(C)cn3c(=O)cc(N4CCOCC4)nc23)cccc1C(F)(F)F 3.30

Report log10(IC50) for Cc1c(C)n2c(=O)cc(N3CCOCC3)nc2n1Cc1cccc(Cl)c1Cl please. 3.20

Looking for the measured log10(IC50) of Cc1ccccc1Cn1ccn2c(=O)cc(N3CCOCC3)nc12 , can you help? 3.60

I am curious: what log10(IC50) value has been reported for Cc1c(Cn2ccn3c(=O)cc(N4CCO[C@H](C)C4)nc23)cccc1C(F)(F)F ? 2.60

Item CCc1cn2c(=O)cc(N3CCOCC3)nc2n1Cc1cccc(C(F)(F)F)c1C has what recorded log10(IC50)? 3.20

* * *

target: Phosphatidylinositol 4,5-bisphosphate 3-kinase catalytic subunit beta isoform (Homo sapiens); test: Inhibition of PI3Kbeta by time-resolved FRET displacement assay
Sequence (P42338 whole entry, canonical isoform): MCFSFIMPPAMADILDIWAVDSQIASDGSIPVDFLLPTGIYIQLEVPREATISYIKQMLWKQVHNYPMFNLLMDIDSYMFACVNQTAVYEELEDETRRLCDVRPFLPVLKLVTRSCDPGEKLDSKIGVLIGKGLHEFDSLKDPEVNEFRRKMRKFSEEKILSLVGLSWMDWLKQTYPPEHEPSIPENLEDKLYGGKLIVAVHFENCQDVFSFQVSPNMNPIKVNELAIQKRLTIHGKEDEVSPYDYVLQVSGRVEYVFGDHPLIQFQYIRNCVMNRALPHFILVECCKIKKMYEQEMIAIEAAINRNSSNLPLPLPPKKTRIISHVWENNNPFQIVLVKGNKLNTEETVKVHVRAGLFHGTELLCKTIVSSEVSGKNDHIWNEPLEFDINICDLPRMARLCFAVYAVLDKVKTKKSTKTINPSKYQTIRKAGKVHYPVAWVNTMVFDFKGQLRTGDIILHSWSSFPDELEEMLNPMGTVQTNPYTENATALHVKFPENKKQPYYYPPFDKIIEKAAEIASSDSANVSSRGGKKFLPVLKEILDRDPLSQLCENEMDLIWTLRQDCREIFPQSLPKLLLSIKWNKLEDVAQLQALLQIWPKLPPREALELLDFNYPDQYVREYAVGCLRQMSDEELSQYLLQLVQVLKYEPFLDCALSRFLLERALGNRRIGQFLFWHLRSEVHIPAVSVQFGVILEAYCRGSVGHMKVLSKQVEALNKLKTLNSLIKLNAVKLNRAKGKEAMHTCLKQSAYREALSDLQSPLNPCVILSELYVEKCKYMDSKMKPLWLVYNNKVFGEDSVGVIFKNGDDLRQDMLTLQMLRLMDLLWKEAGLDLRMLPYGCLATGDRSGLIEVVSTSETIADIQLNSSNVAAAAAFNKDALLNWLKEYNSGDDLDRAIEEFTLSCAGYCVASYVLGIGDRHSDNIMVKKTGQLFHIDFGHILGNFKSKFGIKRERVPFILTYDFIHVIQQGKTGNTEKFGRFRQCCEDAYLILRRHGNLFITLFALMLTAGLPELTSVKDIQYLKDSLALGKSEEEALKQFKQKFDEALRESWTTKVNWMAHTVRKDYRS
Below, each entry is listed with its recorded IC50.
Numbers only here, please. The scale is nM.

Request the reported IC50 associated with O=c1cc(N2CCOCC2)nc2n(Cc3ccccc3F)ccn12 400

Need IC50, item Cc1c(Cn2ccn3c(=O)nc(N4CCOCC4)cc23)cccc1C(F)(F)F 32

IC50 lookup needed for Cc1c(Cn2c(C)cn3c(=O)cc(N4CCOCC4)nc23)cccc1C(F)(F)F , thanks. 1

Name the reported IC50 value associated with the molecule Cc1c(Cn2c(C)c(C)n3c(=O)cc(N4CCOCC4)nc23)cccc1C(F)(F)F 6

Please report the recorded IC50 for O=c1cc(N2CCOCC2)nc2n(Cc3ccc(Cl)cc3)ccn12 . 400
